meta.source: patent US8026218

- Experimental system: human δ opioid receptor (human, UniProt P41143 1-372)
- Sequence (P41143 whole entry, stated change not applied): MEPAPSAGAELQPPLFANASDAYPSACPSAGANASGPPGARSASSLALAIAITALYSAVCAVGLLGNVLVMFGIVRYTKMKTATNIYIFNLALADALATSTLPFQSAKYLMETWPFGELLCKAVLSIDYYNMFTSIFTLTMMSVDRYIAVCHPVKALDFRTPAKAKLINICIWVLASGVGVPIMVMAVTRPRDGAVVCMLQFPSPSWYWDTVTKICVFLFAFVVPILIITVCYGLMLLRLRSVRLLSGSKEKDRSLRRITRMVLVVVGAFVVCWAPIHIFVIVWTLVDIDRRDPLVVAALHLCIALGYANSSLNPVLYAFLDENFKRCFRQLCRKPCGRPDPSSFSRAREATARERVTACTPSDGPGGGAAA
- Run description: cell-based or functional assay
Bridge positions count the residues as written; N and C are the ends. Square brackets hold non-standard residues; d marks the D form. Ends that are not written are not given here. * marks the point of attachment. NH(3,5-(CF3)2-benzyl) = FC(F)(F)c1cc(CN*)cc(C(F)(F)F)c1; Nle = CCCC[C@H](N)C(=O)O
Property name: [35S]GTPγS binding Emax (%)

- Binder: "Y[dC]GFCPLW-{NH(3,5-(CF3)2-benzyl)} (disulfide 2-5, cyclic; also called TY039; [D-Cys2, Cys5]TY027) [Tyr[DCysGlyPheCys]ProLeuTrpNHBn(CF3)2]"
  Property name: "[35S]GTPγS binding Emax"
  Quantitative readout: 37
- Binder: "Y[dC]GF[dC]PLW-{NH(3,5-(CF3)2-benzyl)} (disulfide 2-5, cyclic; also called TY037; [D-Cys2, D-Cys5]TY027) [Tyr[DCysGlyPheDCys]ProLeuTrpNHBn(CF3)2]"
  Property name: "[35S]GTPγS binding Emax"
  Quantitative readout: 22
- Binder: "Y[dA]GFMPLW-{NH(3,5-(CF3)2-benzyl)} (also called TY027) [TyrDAlaGlyPheMetProLeuTrpNHBn(CF3)2]"
  Property name: "[35S]GTPγS binding Emax"
  Quantitative readout: 58
- Binder: "Y[dC]GF[Nle]PCW-{NH(3,5-(CF3)2-benzyl)} (disulfide 2-7, cyclic; also called TY035; [D-Cys2, Cys7]TY027) [Tyr[DCysGlyPheNleProCys]TrpNHBn(CF3)2]"
  Property name: "[35S]GTPγS binding Emax"
  Quantitative readout: 11
- Binder: "Y[dC]GF[Nle]P[dC]W-{NH(3,5-(CF3)2-benzyl)} (disulfide 2-7, cyclic; also called TY038; [D-Cys2, D-Cys7]TY027) [Tyr[DCysGlyPheNleProDCys]TrpNHBn(CF3)2]"
  Property name: "[35S]GTPγS binding Emax"
  Quantitative readout: 87
